The following are reported pIC50 results, target or system Beta-secretase 1 (Homo sapiens).
Quick note: pIC50 values are minus log10 of concentrations in mol/L.

• CC(C)CCn1cc(C2(c3cccc(-c4cncnc4)c3)N=C(N)N(C)C2=O)cn1 (racemic) = 7.52
• CCCCn1cc(C2(c3cccc(-c4cccnc4F)c3)N=C(N)N(C)C2=O)cn1 (racemic) = 8.00
• Cc1cc(C2(c3cccc(-c4cncnc4)c3)N=C(N)N(C)C2=O)cs1 (racemic) = 6.85
• CN1C(=O)C(c2cccc(-c3cccnc3F)c2)(c2cnn(C3CCCC3)c2)N=C1N (racemic) = 7.70
• CCC(=O)c1cc(C2(c3cccc(-c4cccnc4F)c3)N=C(N)N(C)C2=O)cs1 (racemic) = 7.82
• CN1C(=O)C(c2cccc(-c3cncnc3)c2)(c2cnn(CCC(C)(C)C)c2)N=C1N (racemic) = 7.70

Read the next record carefully.
Ask: Which pIC50 is reported for this compound? CCn1cc([C@@]2(c3cccc(-c4cccnc4F)c3)N=C(N)N(C)C2=O)cn1
Result: 5.71
